Recorded measurements of pKi, one per entry
Molecular target: PER-1 (Pseudomonas aeruginosa, UniProt P37321)
Sequence (P37321 27-308): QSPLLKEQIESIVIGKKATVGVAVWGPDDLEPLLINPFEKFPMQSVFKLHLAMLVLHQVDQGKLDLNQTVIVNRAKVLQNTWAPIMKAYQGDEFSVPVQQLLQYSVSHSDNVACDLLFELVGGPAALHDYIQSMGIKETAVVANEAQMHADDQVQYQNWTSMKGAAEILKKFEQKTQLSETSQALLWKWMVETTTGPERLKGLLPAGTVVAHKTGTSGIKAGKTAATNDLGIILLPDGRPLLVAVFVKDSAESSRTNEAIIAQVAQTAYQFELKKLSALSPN
Assay: Direct competition inhibition assay with nitrocefin, PER-1
Here pKi is given on a logarithmic scale as minus log10 of the concentration in mol/L.

NC(=O)[C@@H]1CC[C@@H]2CN1C(=O)N2OS(=O)(=O)O [Avibactam] | 6.72
C[C@]1(Cn2ccnn2)[C@H](C(=O)O)N2C(=O)C[C@H]2S1(=O)=O [Tazobactam] | 6.49

Next:
Entry under test: O=C(O)[C@H]1/C(=C/CO)O[C@@H]2CC(=O)N21 [Clavulanic acid] . Its pKi was 7.62

* * *

Tested on: PAO1 transconjugants carrying blaPER-1 plasmids
Assay: Broth microdilution MIC, transconjugants and recipient PAO1-Rrif
Assay type: cell-based
Conditions: Pseudomonas aeruginosa, PAO1, transconjugant PAO1/pPA282
A collection of molecules and their measured MIC
API: value field is a number in µg/mL; no unit string.

Known MIC results, listed for orientation:
C[C@@H](O)[C@H]1C(=O)N2C(C(=O)O)=C(S[C@@H]3CN[C@H](C(=O)N(C)C)C3)[C@H](C)[C@H]12 [MEM, meropenem] | 1
CO/N=C(\C(=O)N[C@@H]1C(=O)N2C(C(=O)[O-])=C(C[N+]3(C)CCCC3)CS[C@H]12)c1csc(N)n1 [FEP, cefepime] | 128

MIC recorded for this molecule, CC(C)(O/N=C(\C(=O)N[C@@H]1C(=O)N2C(C(=O)[O-])=C(C[N+]3(CCNC(=O)c4ccc(O)c(O)c4Cl)CCCC3)CS[C@H]12)c1csc(N)n1)C(=O)O [CFDC, Cefiderocol] , is 2

* * *

System: PER-producing P. aeruginosa clinical isolates
Assay: microbe, parasite or virus in culture
Assay type: cell-based, Pseudomonas aeruginosa
Conditions: 56 PER-producing PA strains; share of isolates resistant
Below, each entry is listed alongside its reported % resistance.
Your answer is read as %, so omit the unit and give the number.

Below: 3 compounds and their reported % resistance.
C[C@@H](O)[C@H]1C(=O)N2C(C(=O)O)=C(SCCN=CN)C[C@H]12 | 92.86
C[C@H]1COc2c(N3CCN(C)CC3)c(F)cc3c(=O)c(C(=O)O)cn1c23 | 82.14
CCN1CCN(C(=O)N[C@@H](C(=O)N[C@@H]2C(=O)N3[C@@H]2SC(C)(C)[C@@H]3C(=O)O)c2ccccc2)C(=O)C1=O | 98.21

Measured % resistance, C[C@@H](O)[C@H]1C(=O)N2C(C(=O)O)=C(S[C@@H]3CN[C@H](C(=O)N(C)C)C3)[C@H](C)[C@H]12 : 91.07

Record summary for NCC[C@H](O)C(=O)N[C@@H]1C[C@H](N)[C@@H](O[C@H]2O[C@H](CN)[C@@H](O)[C@H](O)[C@H]2O)[C@H](O)[C@H]1O[C@H]1O[C@H](CO)[C@@H](O)[C@H](N)[C@H]1O : reported % resistance = 94.64

Lab note: CC(C)(O/N=C(\C(=O)N[C@@H]1C(=O)N2C(C(=O)[O-])=C(C[n+]3ccccc3)CS[C@H]12)c1csc(N)n1)C(=O)O gave % resistance of 100.00

* * *

Test system: PAO1 transconjugants carrying blaPER-1 plasmids
Assay: Broth microdilution MIC, transconjugants and recipient PAO1-Rrif
Type: cell-based
Details: Pseudomonas aeruginosa, PAO1, transconjugant PAO1/pPA268
Documented MIC across a set of molecules
A number alone suffices; assume µg/mL.

CO/N=C(\C(=O)N[C@@H]1C(=O)N2C(C(=O)[O-])=C(C[N+]3(C)CCCC3)CS[C@H]12)c1csc(N)n1 [FEP, cefepime] | 128

Lab book: MIC of CC(C)(O/N=C(\C(=O)N[C@@H]1C(=O)N2C(C(=O)[O-])=C(C[N+]3(CCNC(=O)c4ccc(O)c(O)c4Cl)CCCC3)CS[C@H]12)c1csc(N)n1)C(=O)O noted as 2

Value of MIC reported for the molecule C[C@@H](O)[C@H]1C(=O)N2C(C(=O)O)=C(S[C@@H]3CN[C@H](C(=O)N(C)C)C3)[C@H](C)[C@H]12 is 1

* * *

Biological target: PER-1 (Pseudomonas aeruginosa, UniProt P37321)
Sequence (P37321 27-308): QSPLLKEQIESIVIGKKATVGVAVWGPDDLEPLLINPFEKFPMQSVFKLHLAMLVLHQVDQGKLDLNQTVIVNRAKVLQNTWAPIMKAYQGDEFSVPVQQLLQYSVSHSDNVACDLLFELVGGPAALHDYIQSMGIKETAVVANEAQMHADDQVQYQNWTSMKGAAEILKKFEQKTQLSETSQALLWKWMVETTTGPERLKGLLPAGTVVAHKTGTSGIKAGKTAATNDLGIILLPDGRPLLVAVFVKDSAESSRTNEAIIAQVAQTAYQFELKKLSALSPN
Assay: Direct competition inhibition assay with nitrocefin, PER-1
experimental.readout: pIC50
Answer as the number alone; pIC50 is minus log10 of concentration in mol/L.

NC(=O)[C@@H]1CC[C@@H]2CN1C(=O)N2OS(=O)(=O)O | 6.66
C[C@]1(Cn2ccnn2)[C@H](C(=O)O)N2C(=O)C[C@H]2S1(=O)=O | 6.44

Pending compound:
Data point: O=C(O)[C@H]1/C(=C/CO)O[C@@H]2CC(=O)N21 ; pIC50 = 7.57

* * *

Tested on: PER-producing P. aeruginosa clinical isolates
Experiment: microbe, parasite or virus in culture
Format: cell-based, Pseudomonas aeruginosa
Details: Pseudomonas aeruginosa, isolate PA268
Readings of MIC for the listed compounds
Give just the numeric value; µg/mL need not be written.

Consider the reported MIC for these compounds:
C[C@@H](O)[C@H]1C(=O)N2C(C(=O)O)=C(SCCN=CN)C[C@H]12 | 16
CC(C)(O/N=C(\C(=O)N[C@@H]1C(=O)N2C(C(=O)[O-])=C(C[N+]3(CCNC(=O)c4ccc(O)c(O)c4Cl)CCCC3)CS[C@H]12)c1csc(N)n1)C(=O)O | 2

The record that follows has no MIC shown yet.
For reference, reported MIC for C[C@@H](O)[C@H]1C(=O)N2C(C(=O)O)=C(S[C@@H]3CN[C@H](C(=O)N(C)C)C3)[C@H](C)[C@H]12 stands at 16

* * *

Test system: PAO1 transconjugants carrying blaPER-1 plasmids
Assay: Broth microdilution MIC, transconjugants and recipient PAO1-Rrif
Format: cell-based
Settings: Pseudomonas aeruginosa, PAO1, transconjugant PAO1/pPA282
experimental.readout: MIC

Consider the reported MIC for these compounds:
CC(C)(O/N=C(\C(=O)N[C@@H]1C(=O)N2C(C(=O)[O-])=C(C[n+]3ccccc3)CS[C@H]12)c1csc(N)n1)C(=O)O | > 128 µg/mL
C[C@H]1[C@H](NC(=O)/C(=N\OC(C)(C)C(=O)O)c2csc(N)n2)C(=O)N1S(=O)(=O)O | > 128 µg/mL

Moving on to the next compound.
For this compound ( CCN1CCN(C(=O)N[C@@H](C(=O)N[C@@H]2C(=O)N3[C@@H]2SC(C)(C)[C@@H]3C(=O)O)c2ccccc2)C(=O)C1=O ), measured MIC is > 128 µg/mL

* * *

Tested on: PAO1 transconjugants carrying blaPER-1 plasmids
Experiment: Broth microdilution MIC, transconjugants and recipient PAO1-Rrif
Format: cell-based
Details: Pseudomonas aeruginosa, PAO1, transconjugant PAO1/pPA268
Listing of entries alongside the reported MIC.

As a guide, the following entries are already answered.
CCN1CCN(C(=O)N[C@@H](C(=O)N[C@@H]2C(=O)N3[C@@H]2SC(C)(C)[C@@H]3C(=O)O)c2ccccc2)C(=O)C1=O | > 128 µg/mL
C[C@H]1[C@H](NC(=O)/C(=N\OC(C)(C)C(=O)O)c2csc(N)n2)C(=O)N1S(=O)(=O)O | > 128 µg/mL

MIC for CC(C)(O/N=C(\C(=O)N[C@@H]1C(=O)N2C(C(=O)[O-])=C(C[n+]3ccccc3)CS[C@H]12)c1csc(N)n1)C(=O)O is > 128 µg/mL
